target: Gal(b1-4)GlcNAc(b1-2)[Gal(b1-4)GlcNAc(b1-4)]Man(a1-3)[GlcNAc(b1-4)][Gal(b1-4)GlcNAc(b1-2)[Gal(b1-4)GlcNAc(b1-6)]Man(a1-6)]Man(b1-4)GlcNAc(b1-4)GlcNAc; assay: glycan array binding signal (z-score within array); higher = stronger binding; conditions: glycan notation: IUPAC condensed, linker removed
Shown is part of a subset that was picked to be rich in the strongest signals.
So basically: glycan array binding signal (z-score) at -0.2 or higher? That is TRUE. Lower than -0.2? That is FALSE.

The following binders have reported results that may help.
{"binder": "BDCA-2 (Homo sapiens), Q8WTT0 (protein) MVPEEEPQDREKGLWWFQLKVWSMAVVSILLLSVCFTVSSVVPHNFMYSKTVKRLSKLREYQQYHPSLTCVMEGKDIEDWSCCPTPWTSFQSSCYFISTGMQSWTKSQKNCSVMGADLVVINTREEQDFIIQNLKRNSSYFLGLSDPGGRRHWQWVDQTPYNENVTFWHSGEPNNLDERCAIINFRSSEEWGWNDIHCHVPQKSICKMKKIYI", "label_value": "TRUE"}
{"binder": "LCA (Lens culinaris), P02870 (protein) MASLQTQMISFYLIFLSILLTTIFFFKVNSTETTSFSITKFSPDQKNLIFQGDGYTTKGKLTLTKAVKSTVGRALYSTPIHIWDRDTGNVANFVTSFTFVIDAPSSYNVADEFTFFIAPVDTKPQTGGGYLGVFNSKEYDKTSQTVAVEFDTFYNAAWDPSNKERHIGIDVNSIKSVNTKSWNLQNGERANVVIAFNAATNVLTVTLTYPNSLEEENVTSYTLNEVVPLKDVVPEWVRIGFSATTGAEFAAHEVHSWSFHSELGGTSSSKQAADA", "label_value": "FALSE"}
{"binder": "MSMEG3662-2a (Mycobacterium smegmatis), A0QYH7_MYCS2 (protein) MGDTLTAGQKLERGGSLQSGNGAYTLTLQDDGNLVLYARDKAVWSTGTNGQDVVRAEVQTDGNFVLYTAEKPVWHTDTKGKKEVKLVLQDDRNLVLYAKDGPAWSSKTDTTEPPPPAPEPEKEAEVAPAAAEEAAPAPVAEPAPAEPAPAAPPPAPPAPRTYTVVSGDTLWAIAERFYGDGSKYQQIADASGIANPDLIHPGQVLTIP", "label_value": "TRUE"}
{"binder": "Dectin2 (Homo sapiens), Q6EIG7 (protein) MMQEQQPQSTEKRGWLSLRLWSVAGISIALLSACFIVSCVVTYHFTYGETGKRLSELHSYHSSLTCFSEGTKVPAWGCCPASWKSFGSSCYFISSEEKVWSKSEQNCVEMGAHLVVFNTEAEQNFIVQQLNESFSYFLGLSDPQGNNNWQWIDKTPYEKNVRFWHLGEPNHSAEQCASIVFWKPTGWGWNDVICETRRNSICEMNKIYL", "label_value": "TRUE"}
{"binder": "Mermaid1 (Stilbonema majum) (protein) MGSSHHHHHHSSGLVPRGSHMAASGWLRSPQGTVVKLYRRSLSWSKADEFCKDVDGRLVVDRTADMHLFLIKNVLKEKKSRVWVGLRRTAPHSRTWIWSDGTRQNEDDLDANLWLRDEPNDAAGEEECALFMYSPWEKAWGLNDYLCRGGCRSYQFICEKWIR", "label_value": "FALSE"}

// switching to the query binder
[Q] Tell me whether glycan array binding signal (z-score) is at least -0.2 here: Mermaid2 (Stilbonema majum) (protein) MGSSHHHHHHSSGLVPRGSHMAASGWLRSPQGTVVKLYRRSLSWSKADEFCKDVDGRLVVDRTADMHLFLIKNVLKEKKSRVWVGLRRTAPHSRTWIWSDGTRQNEDDLNTNLWLRDEPNDAAGEEECALFMYSPWEKAWGLNDYLCRGGCRSYQFICEKGIR
[A] TRUE

Reference source for all entries: the supplement of paper PMC8728848
